System: SpTbr T-box DNA-binding domain (GST fusion);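 note: protein at 200 nM in PBS on universal double-stranded arrays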
Sequence: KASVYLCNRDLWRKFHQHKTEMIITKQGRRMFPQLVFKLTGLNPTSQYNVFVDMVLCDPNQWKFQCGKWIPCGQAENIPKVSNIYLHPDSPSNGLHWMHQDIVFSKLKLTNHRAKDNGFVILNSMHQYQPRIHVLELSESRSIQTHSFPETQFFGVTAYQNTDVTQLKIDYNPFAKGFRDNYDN
Experiment: PBM E-score of 8-mer (E-score (dimensionless, -0.5 to 0.5)); Tbr is Tbrain of the sea star Patiria miniata (Pm) or the sea urchin Strongylocentrotus purpuratus (Sp); higher = stronger binding preference
Conditions: the construct has about 5 more residues each side
In all, about 33,000 sequences were measured (“E-score (dimensionless, -0.5 to 0.5)”: median about -0.046, highest 2% from about 0.36 on). The entries come from a sample that favours the highest values as a whole.
Label criterion met for high-side PBM E-score of 8-mer (at or above 0.3) and criterion not met for low-side PBM E-score of 8-mer (below it).

Task item: # bool: PBM E-score of 8-mer of ATGTGCTA >= 0.3
Reply: criterion met

Task item: What about this sequence? AGGTGCGC
Reply: criterion met

Task item: Query ACGTGAGG next
Reply: criterion not met

Task item: Now consider GCTTATCC and answer again.
Reply: criterion not met

Task item: Repeat for the following sequence: CCTCCTCA
Reply: criterion not met

Task item: Another sequence to look at: CGGTGCTA
Reply: criterion not met

Task item: Please answer likewise for GTACTTGA
Reply: criterion not met

Task item: Okay, and AGGTGAGC ?
Reply: criterion not met

Task item: Follow-up item: AAGTGCGG
Reply: criterion not met

Task item: Try TGGTGCAA next.
Reply: criterion not met

Task item: # iterate: TGACACCA
Reply: criterion met

Task item: How about this sequence: CAGAAATG
Reply: criterion not met

These data points were gathered from the supplement of paper PMC4166925.
